Source of measurements: ChEMBL document CHEMBL1136454

- measurement_protocol: In vivo Tmax was determined in murine septicemia at dose of 100 mg/kg
- Type: ADME, organism-based
- Parameters: dose 100 mg/kg
- measurement_context: mouse

{"structure_smiles_string": "CCCCCCCCCC(=O)N[C@@H](Cc1c[nH]c2ccccc12)C(=O)N[C@H](CC(N)=O)C(=O)N[C@@H](CC(=O)O)C(=O)N[C@@H]1C(=O)NCC(=O)N[C@@H](CCCNC(=O)c2ccccc2N)C(=O)N[C@@H](CC(=O)O)C(=O)N[C@H](C)C(=O)N[C@@H](CC(=O)O)C(=O)NCC(=O)N[C@H](CO)C(=O)N[C@@H]([C@H](C)CC(=O)O)C(=O)N[C@@H](CC(=O)c2ccccc2N)C(=O)O[C@@H]1C", "Tmax": "30 min"}

* * *

The entries below come with measured clearance values attached.
- measurement_protocol: In vivo total clearance was determined in murine septicemia at dose of 50 mg/kg
- Format: ADME, organism-based
- Set-up: dose 50 mg/kg
- measurement_context: mouse, read-out: CLtotal (converted)
observed_property: clearance (mL/min/kg)

{"structure_smiles_string": "CCCCCCCCCC(=O)N[C@@H](Cc1c[nH]c2ccccc12)C(=O)N[C@H](CC(N)=O)C(=O)N[C@@H](CC(=O)O)C(=O)N[C@@H]1C(=O)NCC(=O)N[C@@H](CCCN)C(=O)N[C@@H](CC(=O)O)C(=O)N[C@H](C)C(=O)N[C@@H](CC(=O)O)C(=O)NCC(=O)N[C@H](CO)C(=O)N[C@@H]([C@H](C)CC(=O)O)C(=O)N[C@@H](CC(=O)c2ccccc2N)C(=O)O[C@@H]1C", "unit_text": "mL/min/kg", "recorded_value": 1.7}
{"structure_smiles_string": "CCCCCCCCCC(=O)N[C@@H](Cc1c[nH]c2ccccc12)C(=O)N[C@H](CC(N)=O)C(=O)N[C@@H](CC(=O)O)C(=O)N[C@@H]1C(=O)NCC(=O)N[C@@H](CCCNC(=O)[C@@H](N)CCCCN)C(=O)N[C@@H](CC(=O)O)C(=O)N[C@H](C)C(=O)N[C@@H](CC(=O)O)C(=O)NCC(=O)N[C@H](CO)C(=O)N[C@@H]([C@H](C)CC(=O)O)C(=O)N[C@@H](CC(=O)c2ccccc2N)C(=O)O[C@@H]1C", "unit_text": "mL/min/kg", "recorded_value": 1.42}

* * *

- measurement_protocol: In vivo area under curve (AUC) was determined in murine septicemia at dose of 50 mg/kg
- Assay type: ADME, organism-based
- Design: dose 50 mg/kg
- measurement_context: mouse

{"structure_smiles_string": "CCCCCCCCCC(=O)N[C@@H](Cc1c[nH]c2ccccc12)C(=O)N[C@H](CC(N)=O)C(=O)N[C@@H](CC(=O)O)C(=O)N[C@@H]1C(=O)NCC(=O)N[C@@H](CCCNC(=N)N)C(=O)N[C@@H](CC(=O)O)C(=O)N[C@H](C)C(=O)N[C@@H](CC(=O)O)C(=O)NCC(=O)N[C@H](CO)C(=O)N[C@@H]([C@H](C)CC(=O)O)C(=O)N[C@@H](CC(=O)c2ccccc2N)C(=O)O[C@@H]1C", "unit_text": "µg·h/mL", "AUC": 766}

* * *

- Test system: Enterococcus faecalis
- measurement_protocol: Antibacterial activity against Enterococcus faecalis ATCC 49452
- Assay type: functional
The entries below come with measured MIC values attached.

{"compound": "CCCCCCCCCC(=O)N[C@@H](Cc1c[nH]c2ccccc12)C(=O)N[C@H](CC(N)=O)C(=O)N[C@@H](CC(=O)O)C(=O)N[C@@H]1C(=O)NCC(=O)N[C@@H](CCCNC(=O)[C@@H](N)CCCCN)C(=O)N[C@@H](CC(=O)O)C(=O)N[C@H](C)C(=O)N[C@@H](CC(=O)O)C(=O)NCC(=O)N[C@H](CO)C(=O)N[C@@H]([C@H](C)CC(=O)O)C(=O)N[C@@H](CC(=O)c2ccccc2N)C(=O)O[C@@H]1C", "experimental_target": "Enterococcus faecalis", "unit_text": "µg/mL", "MIC": 6.25}
{"compound": "CCCCCCCCCC(=O)N[C@@H](Cc1c[nH]c2ccccc12)C(=O)N[C@H](CC(N)=O)C(=O)N[C@@H](CC(=O)O)C(=O)N[C@@H]1C(=O)NCC(=O)N[C@@H](CCCNC(=O)c2ccccc2N)C(=O)N[C@@H](CC(=O)O)C(=O)N[C@H](C)C(=O)N[C@@H](CC(=O)O)C(=O)NCC(=O)N[C@H](CO)C(=O)N[C@@H]([C@H](C)CC(=O)O)C(=O)N[C@@H](CC(=O)c2ccccc2N)C(=O)O[C@@H]1C", "experimental_target": "Enterococcus faecalis", "unit_text": "µg/mL", "MIC": 12.5}
{"compound": "CCCCCCCCCC(=O)N[C@@H](Cc1c[nH]c2ccccc12)C(=O)N[C@H](CC(N)=O)C(=O)N[C@@H](CC(=O)O)C(=O)N[C@@H]1C(=O)NCC(=O)N[C@@H](CCCNC(=N)N)C(=O)N[C@@H](CC(=O)O)C(=O)N[C@H](C)C(=O)N[C@@H](CC(=O)O)C(=O)NCC(=O)N[C@H](CO)C(=O)N[C@@H]([C@H](C)CC(=O)O)C(=O)N[C@@H](CC(=O)c2ccccc2N)C(=O)O[C@@H]1C", "experimental_target": "Enterococcus faecalis", "unit_text": "µg/mL", "MIC": 12.5}
{"compound": "CCCCCCCCCC(=O)N[C@@H](Cc1c[nH]c2ccccc12)C(=O)N[C@H](CC(N)=O)C(=O)N[C@@H](CC(=O)O)C(=O)N[C@@H]1C(=O)NCC(=O)N[C@@H](CCCNC(=O)C2Cc3c([nH]c4ccccc34)CN2)C(=O)N[C@@H](CC(=O)O)C(=O)N[C@H](C)C(=O)N[C@@H](CC(=O)O)C(=O)NCC(=O)N[C@H](CO)C(=O)N[C@@H]([C@H](C)CC(=O)O)C(=O)N[C@@H](CC(=O)c2ccccc2N)C(=O)O[C@@H]1C (stereo not given in full)", "experimental_target": "Enterococcus faecalis", "unit_text": "µg/mL", "MIC": 12.5}
{"compound": "CCCCCCCCCC(=O)N[C@@H](Cc1c[nH]c2ccccc12)C(=O)N[C@H](CC(N)=O)C(=O)N[C@@H](CCO)C(=O)N[C@@H]1C(=O)NCC(=O)N[C@@H](CCCNC(=O)C(N)Cc2c[nH]c3ccc(F)cc23)C(=O)N[C@@H](CC(=O)O)C(=O)N[C@H](C)C(=O)N[C@@H](CC(=O)O)C(=O)NCC(=O)N[C@H](CO)C(=O)N[C@@H]([C@H](C)CC(=O)O)C(=O)N[C@@H](CC(=O)c2ccccc2N)C(=O)O[C@@H]1C (stereo not given in full)", "experimental_target": "Enterococcus faecalis", "unit_text": "µg/mL", "MIC": 1.56}

* * *

The entries below come with measured Tmax values attached.
- measurement_protocol: In vivo Tmax was determined in murine septicemia at dose of 50 mg/kg
- Assay type: ADME, organism-based
- Set-up: dose 50 mg/kg
- measurement_context: mouse
observed_property: Tmax (min)

{"molecule": "CCCCCCCCCC(=O)N[C@@H](Cc1c[nH]c2ccccc12)C(=O)N[C@H](CC(N)=O)C(=O)N[C@@H](CC(=O)O)C(=O)N[C@@H]1C(=O)NCC(=O)N[C@@H](CCCNC(=N)N)C(=O)N[C@@H](CC(=O)O)C(=O)N[C@H](C)C(=O)N[C@@H](CC(=O)O)C(=O)NCC(=O)N[C@H](CO)C(=O)N[C@@H]([C@H](C)CC(=O)O)C(=O)N[C@@H](CC(=O)c2ccccc2N)C(=O)O[C@@H]1C", "observed_property": "Tmax", "unit_text": "min", "recorded_value": 30}
{"molecule": "CCCCCCCCCC(=O)N[C@@H](Cc1c[nH]c2ccccc12)C(=O)N[C@H](CC(N)=O)C(=O)N[C@@H](CC(=O)O)C(=O)N[C@@H]1C(=O)NCC(=O)N[C@@H](CCCNC(=O)[C@@H](N)CCCCN)C(=O)N[C@@H](CC(=O)O)C(=O)N[C@H](C)C(=O)N[C@@H](CC(=O)O)C(=O)NCC(=O)N[C@H](CO)C(=O)N[C@@H]([C@H](C)CC(=O)O)C(=O)N[C@@H](CC(=O)c2ccccc2N)C(=O)O[C@@H]1C", "observed_property": "Tmax", "unit_text": "min", "recorded_value": 30}
{"molecule": "CCCCCCCCCC(=O)N[C@@H](Cc1c[nH]c2ccccc12)C(=O)N[C@H](CC(N)=O)C(=O)N[C@@H](CC(=O)O)C(=O)N[C@@H]1C(=O)NCC(=O)N[C@@H](CCCNC(=O)C2Cc3c([nH]c4ccccc34)CN2)C(=O)N[C@@H](CC(=O)O)C(=O)N[C@H](C)C(=O)N[C@@H](CC(=O)O)C(=O)NCC(=O)N[C@H](CO)C(=O)N[C@@H]([C@H](C)CC(=O)O)C(=O)N[C@@H](CC(=O)c2ccccc2N)C(=O)O[C@@H]1C (stereo partly drawn)", "observed_property": "Tmax", "unit_text": "min", "recorded_value": 360}
